Measured values drawn from a melting point compilation (Tetko et al.; mined from patent text by program, amines drawn as free bases though some values may be those of a salt) for this set.

The entries below come with measured melting point values attached.

Some solved cases for reference:
CC(C)(C=O)C(=O)Nc1ccc(Cl)cc1 = 99 to 100 °C
COc1ccc(CNC(=O)Nc2ccc(CN3C(=O)[C@H]4CCC[C@H]4N(C(=O)CCl)c4ccccc43)cc2)cc1 (relative stereo) = 225 to 226 °C
Nc1c(F)cc(Cl)c2nc(Cl)sc12 = 173 °C
CN1CCN(C(=S)Cc2ccc(S(C)(=O)=O)cc2)CC1 = 172 to 177 °C

Please examine the following record next.
Value of measured melting point for the entry Cc1ccccc1NC(=O)Nc1ccc(-c2c(C(C)C)sc3ncnc(N)c23)cc1 : 233 to 234 °C
